tested on: SN12C renal; assay: NCI-60 one-dose screen, 48 h; settings: 10 µM unless noted
About 83,000 compounds went through this panel and 20% of them were active in at least one assay; those are over-represented in the sample as a whole. Activity calls are given as the source filed them. The calls were made as follows: active = growth percent below 10; inactive = the rest.
Classes used: T (active), F (inactive)

Smiles notation	Classification
CCOC(=O)c1ccc(NC(=S)NC(=O)c2cccc(NC(=O)c3ccc(C)cc3)c2)cc1	F
CC[C@]12C=CCN3CC[C@@]4(c5ccc(OC)cc5N(C)[C@H]4[C@@](O)(C(=O)OC)[C@@H]1OC(=O)CCC[P+](c1ccc(OC)cc1)(c1ccc(OC)cc1)c1ccc(OC)cc1)[C@@H]32	T
COc1ccc(N=Nc2c(N)nn3c(-c4cc5ccccc5oc4=O)ccnc23)cc1	F
O=C(CSc1nc2ccccc2c(=O)[nH]1)NNC(=O)c1ccccc1Cl	F

---

Listing of entries alongside the reported growth.
system: NCI-H522 lung; assay: NCI-60 one-dose screen, 48 h (100 = growth as untreated, 0 = no growth, -100 = all killed); settings: 10 µM unless noted
This is part of a sample that, as a whole, favours compounds with a hit. Of some 83,000 tested, about 20% had one in any assay.

Compound	Target entity	growth, %
C=CCn1c(O)c(N=Nc2nc(-c3cc4ccccc4oc3=O)cs2)c2ccccc21	NCI-H522 lung	58.3
C#CCN(C)CCCOc1ccc(N(C)C(=O)c2cc(C(C)C)c(O)cc2O)cc1Cl	NCI-H522 lung	12.6
O=C(Cn1c(-c2ccccc2)nc2ccccc21)N=Nc1c(O)[nH]c2ccc(Br)cc12	NCI-H522 lung	29.5
CCCN(CCC)S(=O)(=O)c1ccc(C(=O)O)cc1.CCCN(CCC)S(=O)(=O)c1ccc(C(=O)O)cc1.[Cl][Pt+2][Cl].[NH2-].[NH2-]	NCI-H522 lung	-54.9
O=C(NNC(=O)c1ccc(OCc2nc3ccc(Cl)cc3[nH]2)cc1)Nc1ccc(Cl)c(Cl)c1	NCI-H522 lung	60.4
O=C1CCC(N2C(=O)c3cccc(NCCOCCOCCOCCC(=O)NCCCC(=O)NC(c4ccc5c(c4)OCO5)c4cc(Cl)c5cccnc5c4O)c3C2=O)C(=O)C1 (stereo unspecified)	NCI-H522 lung	6.82
Cn1cc(-c2cc(N)n3nc(-c4c[nH]c5ccc(Cl)cc45)cc3n2)c2cccnc21	NCI-H522 lung	-82.1
COc1cc(/C=N/NC(=O)c2ccc(OCc3nc4ccc(Cl)cc4[nH]3)cc2)cc(OC)c1OC	NCI-H522 lung	26.2
CC[C@@]12CC(C(=O)OC)=C3Nc4cc5c(cc4[C@@]34CCN(C[C@H]3O[C@H]31)[C@@H]24)[C@@H]1[C@H](O5)[C@@H](O)[C@@]2(CC)CC(C(=O)OC)=C3Nc4cc(O)ccc4[C@@]34CCN1[C@@H]24	NCI-H522 lung	-44.9
CC(C)(C)OC(=O)N1CCC2(CC1)Oc1ccccc1[C@H]1CC(c3ccc(Br)cc3)=NN12	NCI-H522 lung	74.4
Nc1cc(-c2c[nH]c3ccc(F)cc23)nc2cc(-c3c[nH]c4ccccc34)nn12	NCI-H522 lung	-49.9
CN1C(=O)C(O)(CC(=O)c2cc3ccccc3oc2=O)c2ccccc21 (stereo unspecified)	NCI-H522 lung	92.7
CCc1ccccc1-c1nc(CN[C@@H]2C[C@@H]3C[C@H]([C@H]2C)C3(C)C)c(C)o1	NCI-H522 lung	-85.9
C[C@@H](Nc1c(C#N)cnc2ccc(-c3cnc4[nH]ncc4c3)cc12)c1ccccc1	NCI-H522 lung	13.1
O=C1Nc2cc(-c3ccc(NS(=O)(=O)c4ccc(C(F)(F)F)cc4)cc3)ccc2/C1=C/c1ccc[nH]1	NCI-H522 lung	-18.4
O=C(N=Nc1c(O)[nH]c2ccc(Cl)cc12)c1ccc2nc(-c3ccc(Cl)cc3)[nH]c2c1	NCI-H522 lung	-26.9
O=c1ccc(Cn2c(C(F)(F)F)cc3c(Cl)ncnc32)c[nH]1	NCI-H522 lung	-77.1
Clc1ccc(Nc2nnc(-c3c[nH]c4ccccc34)o2)cc1	NCI-H522 lung	24.2
COC(=O)c1c(C(=O)OC)c2c3ccccc3c3ccccc3n2c1C(=O)C(F)(F)F	NCI-H522 lung	96.4
CCC1(OC(=O)c2ccccc2SSCCOC(=O)CCCCC2SCC3NC(=O)NC32)C(=O)OCc2c1cc1n(c2=O)Cc2cc3ccccc3nc2-1 (stereo unspecified)	NCI-H522 lung	42.3
COc1cc(CNC(=O)C[C@H](C)CCC=C(C)C)ccc1OCc1cn(-c2ccccc2F)nn1	NCI-H522 lung	57.1
OC1CCC(Cn2c(C(F)(F)F)cc3c(Cl)ncnc32)CC1 (stereo unspecified)	NCI-H522 lung	-81.3
COc1cccc(/C=C/c2nc3ccccc3c(=O)n2CC(=O)Nc2ccccc2)c1	NCI-H522 lung	53.3
COC(=O)c1c(C(=O)OC)c2ccc3c4ccccc4ccc3n2c1C(=O)C(C)Br (stereo unspecified)	NCI-H522 lung	-55.9
Nc1nnc(-c2cncc(Br)c2)c(-c2c[nH]c3ccc(Cl)cc23)n1	NCI-H522 lung	68.1
OC(c1ccccc1)(c1ccccc1)C1CCN(c2ccc3nnc(Cl)n3n2)CC1	NCI-H522 lung	-60.4
C/C(=N\Nc1ccc(S(N)(=O)=O)cc1)c1cnn(-c2cc(=O)[nH]c3ccc(Br)cc23)c1C	NCI-H522 lung	5.07
Cn1cc(-c2cc(N)n3nc(-c4c[nH]c5ccc(Cl)cc45)cc3n2)c2cc(Br)cnc21	NCI-H522 lung	-71
CS(=O)(=O)Nc1cc(-c2ccc3ncnc(Nc4ccc(OCc5cccnc5)c(Cl)c4)c3c2)cnc1Cl	NCI-H522 lung	-4.01
N#Cc1cc(-c2ccc3ncnc(N4CCc5cc(F)c(Cl)cc54)c3c2)cnc1N	NCI-H522 lung	46
COc1cc(NC(=O)C(C)C)ccc1C(=O)NC(=S)Nc1ccc(S(N)(=O)=O)cc1	NCI-H522 lung	76.3
CS(=O)(=O)Nc1cccc(-n2cnc3cc(-c4ccc(O)cc4)ccc32)c1	NCI-H522 lung	25
Fc1ccc(Nc2nnc(-c3c[nH]c4ccccc34)o2)cc1	NCI-H522 lung	48.7
O=C(COc1ccc(/C=C2/C(=O)Nc3ccc(Cl)cc32)cc1)Nc1ccc(Br)cc1	NCI-H522 lung	-35
O=C(N/N=C/c1ccc(B(O)O)s1)c1[nH]c2ccc(Br)cc2c1-c1ccccc1	NCI-H522 lung	-83
O=C(CSc1nc2ccccc2c(=O)[nH]1)Nc1ccccc1C(=O)O	NCI-H522 lung	107
